viability at 48 h, 10 µM reference
- protocol_description: Cytotoxicity against human HeLa cells assessed as cell viability at 10 uM after 48 hrs by resazurin assay relative to control
- Assay type: cell-based
- particulars: read-out: Activity
Only the number, expressed in %, is required.

Sample answers from the record:
molecule | unit_info | viability at 48 h, 10 µM
COc1ccc(Cc2cc(=O)n3c(c2C2CC2)SCC3C(=O)Nc2ccccc2)cc1 (centres undefined) | % | 103
O=C(Nc1ccncn1)C1CSc2c(C3CC3)c(Cc3cccc4ccccc34)cc(=O)n21 (centres undefined) | % | 92
Cc1ccc(NC(=O)C2CSc3c(C4CC4)c(Cc4ccc(Cl)cc4)cc(=O)n32)cc1 (centres undefined) | % | 89
O=C(Nc1ccccc1)[C@@H]1CSc2c(C3CC3)c(Cc3cccc4ccccc34)c(CN3CCOCC3)c(=O)n21 | % | 99
O=C(NC1CCCCC1)C1CSc2c(C3CC3)c(Cc3cccc4ccccc34)cc(=O)n21 (centres undefined) | % | 88
COc1ccc(NC(=O)C2CSc3c(C4CC4)c(Cc4cccc5ccccc45)cc(=O)n32)cc1 (centres undefined) | % | 100
CNC(=O)c1cccc(NC(=O)C2CSc3c(C4CC4)c(Cc4cccc5ccccc45)cc(=O)n32)c1 (centres undefined) | % | 93
O=C(O)c1c(Cc2cccc3ccccc23)c(C2CC2)c2n(c1=O)C(C(=O)Nc1ccccc1)CS2 (centres undefined) | % | 103

Next:
Reported viability at 48 h, 10 µM for `O=C(Nc1ccccc1)c1csc2c(C3CC3)c(Cc3cccc4ccccc34)cc(=O)n12` was 87

The reported measurements were obtained from ChEMBL document CHEMBL3792346.
